Numbers sourced from ChEMBL document CHEMBL1671662.

# Test system: Prevotella denticola
# test protocol: Antibacterial activity against Prevotella P denticola by CLSI M11-A6 agar dilution method
# Assay type: functional
observable: MIC90 (µg/mL)

query smiles: CCC[C@@H]1C[C@@H](C(=O)N[C@@H]([C@H]2O[C@H](SC)[C@H](O)[C@@H](O)[C@H]2O)[C@H](C)Cl)N(C)C1
observable: MIC90
limit operator: ≤
value reported: 0.12
--
query smiles: CCCCCCCCCC(=O)N[C@@H](Cc1c[nH]c2ccccc12)C(=O)N[C@H](CC(N)=O)C(=O)N[C@@H](CC(=O)O)C(=O)N[C@@H]1C(=O)NCC(=O)N[C@@H](CCCN)C(=O)N[C@@H](CC(=O)O)C(=O)N[C@H](C)C(=O)N[C@@H](CC(=O)O)C(=O)NCC(=O)N[C@H](CO)C(=O)N[C@@H]([C@H](C)CC(=O)O)C(=O)N[C@@H](CC(=O)c2ccccc2N)C(=O)O[C@@H]1C
observable: MIC90
limit operator: >
value reported: 128
--
query smiles: Cc1ncc([N+](=O)[O-])n1CCO
observable: MIC90
limit operator: =
value reported: 1
--
query smiles: CCCCCCCCCCNCCN[C@@]1(C)C[C@H](O[C@H]2[C@H](Oc3c4cc5cc3Oc3ccc(cc3Cl)[C@@H](O)[C@@H](NC(=O)[C@@H](CC(C)C)NC)C(=O)N[C@@H](CC(N)=O)C(=O)N[C@H]5C(=O)N[C@H]3C(=O)N[C@H](C(=O)N[C@H](C(=O)O)c5cc(O)c(CNCP(=O)(O)O)c(O)c5-c5cc3ccc5O)[C@H](O)c3ccc(c(Cl)c3)O4)O[C@H](CO)[C@@H](O)[C@@H]2O)O[C@@H](C)[C@H]1O
observable: MIC90
limit operator: =
value reported: 64
--
query smiles: CN[C@H](CC(C)C)C(=O)N[C@H]1C(=O)N[C@@H](CC(N)=O)C(=O)N[C@H]2C(=O)N[C@H]3C(=O)N[C@H](C(=O)N[C@H](C(=O)O)c4cc(O)cc(O)c4-c4cc3ccc4O)[C@H](O)c3ccc(c(Cl)c3)Oc3cc2cc(c3O[C@@H]2O[C@H](CO)[C@@H](O)[C@H](O)[C@H]2O[C@H]2C[C@](C)(N)[C@H](O)[C@H](C)O2)Oc2ccc(cc2Cl)[C@H]1O
observable: MIC90
limit operator: >
value reported: 128
--
query smiles: CC(=O)NC[C@H]1CN(c2ccc(N3CCOCC3)c(F)c2)C(=O)O1
observable: MIC90
limit operator: =
value reported: 2
